# Test system: barnyardgrass (Echinochloa crus-galli)
# protocol-text: Test C pre-/postemergence greenhouse test
# Format: in vivo
# condition-info: Preemergence, 61 g ai/ha; scale 0 to 100
Recorded Plant response rating, Barnyardgrass for the following compounds
Answer with the value's number alone.

Recorded Plant response rating, Barnyardgrass for Cc1cc(Cl)c2ccccc2c1-c1c(O)c(Cl)nn(C)c1=O [Cpd. No. 65] , please?
10

====

# Test system: crabgrass, large (Digitaria sanguinalis)
# protocol-text: Test C pre-/postemergence greenhouse test
# Assay type: in vivo
# condition-info: Postemergence, 125 g ai/ha; scale 0 to 100
We begin with a simple list: items and their reported Plant response rating, Crabgrass, Large.

Consider the worked cases shown below.
| compound-string | Plant response rating, Crabgrass, Large |
| --- | --- |
| Cc1ccc2ccc(Cl)cc2c1-c1c(O)c(Cl)nn(C)c1=O | 60 |
| Cc1ccc2ccc(F)cc2c1-c1c(O)c(Cl)nn(C)c1=O | 70 |
| Cc1cc(Cl)c2ccccc2c1-c1c(O)c(Cl)nn(C)c1=O | 70 |

Which Plant response rating, Crabgrass, Large value is on record for Cc1ccc2ccc(C)c(-c3c(O)c(Cl)nn(C)c3=O)c2c1 ?
80

====

As shown below, each of these molecules has a reported Plant response rating, Oat, Wild value.
# Test system: oat, wild (Avena fatua)
# protocol-text: Test C pre-/postemergence greenhouse test
# Format: in vivo
# condition-info: Postemergence, 31 g ai/ha; scale 0 to 100
# Description: […]
Output spec: single numeric token, no unit.

The following molecules have reported results that may help.
| compound-string | metric | reported |
| --- | --- | --- |
| Cc1ccc2ccc(C)c(-c3c(O)c(Cl)nn(C)c3=O)c2c1 | Plant response rating, Oat, Wild | 55 |
| Cc1ccc2ccc(F)cc2c1-c1c(O)c(Cl)nn(C)c1=O | Plant response rating, Oat, Wild | 98 |
| Cc1cc(Cl)c2ccccc2c1-c1c(O)c(Cl)nn(C)c1=O | Plant response rating, Oat, Wild | 100 |

I'd like to know its Plant response rating, Oat, Wild. The molecule in question is Cc1ccc2ccc(Cl)cc2c1-c1c(O)c(Cl)nn(C)c1=O
100

====

# Test system: johnsongrass (Sorghum halepense)
# protocol-text: Test C pre-/postemergence greenhouse test
# Format: in vivo
# condition-info: Preemergence, 61 g ai/ha; scale 0 to 100
Attribute: Plant response rating, Johnsongrass

For orientation, consider the following solved cases.
| compound | assay-system | Plant response rating, Johnsongrass |
| --- | --- | --- |
| Cc1ccc2ccc(F)cc2c1-c1c(O)c(Cl)nn(C)c1=O [Cpd. No. 21] | johnsongrass (Sorghum halepense) | 5 |
| Cc1cc(Cl)c2ccccc2c1-c1c(O)c(Cl)nn(C)c1=O [Cpd. No. 65] | johnsongrass (Sorghum halepense) | 0 |
| Cc1ccc2ccc(Cl)cc2c1-c1c(O)c(Cl)nn(C)c1=O [Cpd. No. 22] | johnsongrass (Sorghum halepense) | 5 |

Please turn your attention to the following entry.
Record request: Plant response rating, Johnsongrass value, item Cc1ccc2ccc(C)c(-c3c(O)c(Cl)nn(C)c3=O)c2c1 [Cpd. No. 20]
35

====

// reported Plant response rating (0 to 100 scale) for each item listed
# System: rice (Oryza sativa)
# protocol-text: Test B flooded paddy test
# Format: in vivo
# condition-info: Flood, 250 g ai/ha
# Method: Plant species in the flooded paddy test selected from rice (Oryza sativa), sedge, umbrella (small-flower umbrella sedge, Cyperus difformis), duck salad (Heteranthera limosa) and barnyardgrass (Echinochloa crus-galli) were grown to the 2-leaf stage for testing. […] Treated plants and controls were maintained in a greenhouse for 13 to 15 d, after which time all species were compared to controls and visually evaluated. […]
Lab note: record the figure alone, no unit after it.

| compound-string | reported |
| --- | --- |
| Cc1ccc2ccc(Cl)cc2c1-c1c(O)c(Cl)nn(C)c1=O | 60 |
| Cc1ccc2ccc(C)c(-c3c(O)c(Cl)nn(C)c3=O)c2c1 | 15 |
| Cc1ccc2ccc(F)cc2c1-c1c(O)c(Cl)nn(C)c1=O | 35 |

Lab note: next compound to report on.
Reported Plant response rating (0 to 100 scale), compound Cc1cc(Cl)c2ccccc2c1-c1c(O)c(Cl)nn(C)c1=O : ____
20
